Reported melting point by item:

{"compound": "O=C(O)CNCC(=O)NC[C@@H]1CC(c2ccc(-c3ccc(N4C[C@H](Cn5ccnn5)OC4=O)cc3F)cn2)=NO1", "result": "200 to 210 °C"}
{"compound": "CSc1ccc(NC(C#N)c2ccc(OC(F)F)cc2)cc1 (centres undefined)", "result": "98 to 99 °C"}
{"compound": "CCCc1cc(OC)c(OC)c(C(=O)NC[C@@H]2CCCN2CC)c1OC", "result": "68 to 70 °C"}
{"compound": "O=C1NN=C(c2ccc(C3CCCCC3)cc2)C2CC12 (centres undefined)", "result": "211 to 212 °C"}
{"compound": "Cn1ncc([N+](=O)[O-])c1CBr", "result": "71 to 73 °C"}

Problem: What value of measured melting point is listed for COC(=O)C1=C(C)NC(c2cnc(Cl)s2)=NC1c1ccc(F)cc1Cl (centres undefined) ?
Result: > 230 °C

Problem: What value of measured melting point is listed for NC(N)=Nc1nc(-c2cccc(-c3n[nH]c(N)n3)n2)cs1 ?
Result: > 300 °C

Problem: What value of measured melting point is listed for COCOc1c(NC(=O)N(c2ccccc2)C2CCC(NC(=O)OCc3ccccc3)CC2)cc(OC)cc1C(C)(C)C (centres undefined) ?
Result: 145 to 154 °C

Problem: What value of measured melting point is listed for CC(=O)SCCNC(=O)[C@H](CSC(=O)C(C)(C)C)NC(=O)C(C)C ?
Result: 101 to 103 °C

Problem: What value of measured melting point is listed for CS(=O)(=O)c1ccc(-c2cnn(Cc3ccccc3)c(=O)c2Oc2ccc(F)cc2)cc1 ?
Result: 188 to 190 °C

Problem: What value of measured melting point is listed for Nc1c(Cl)ncnc1NCCc1ccccc1 ?
Result: 156 to 157 °C

Problem: What value of measured melting point is listed for COC(=O)CC(S)C(CC(C)C)C(=O)NC(Cc1ccccc1)C(N)=O (centres undefined) ?
Result: 64 to 66 °C

Problem: What value of measured melting point is listed for Cc1ccc(S(=O)(=O)NCCc2cccc(OCCN)c2)cc1 ?
Result: 128 to 130 °C

Problem: What value of measured melting point is listed for Cc1c(-c2ccccc2)[nH]c2ccc(Br)cc12 ?
Result: 138 to 140 °C

====

attribute-measured: melting point

Example entries begin here.
{"compound-smiles": "Cc1nc(N2CCN(CC(C)C)C2=O)sc1C(=O)NCc1ccn(C)n1", "attribute-measured": "melting point", "result": "158 to 161 °C"}
{"compound-smiles": "COC(=O)c1nn(-c2c(Cl)cc(C(F)(F)F)cc2Cl)c(OC)c1SC(F)(F)F", "attribute-measured": "melting point", "result": "97 to 98 °C"}
{"compound-smiles": "NS(=O)(=O)c1nc(-c2cccc(Cl)c2)ns1", "attribute-measured": "melting point", "result": "182 to 184 °C"}

Problem: What value of measured melting point is listed for Cn1ccc2c(NC(=O)c3ccccc3O)cccc21 ?
Result: 211 °C

Problem: What value of measured melting point is listed for CCCc1ccc(S(=O)(=O)c2ccccc2)cc1 ?
Result: 83 to 85 °C

Problem: What value of measured melting point is listed for CSCC(C)(C)NC(=O)c1ccccc1Cl ?
Result: 83 to 86 °C

Problem: What value of measured melting point is listed for CCCn1cc(C(=O)OCC)c(=O)c2ccoc21 ?
Result: 130 °C

Problem: What value of measured melting point is listed for CCN(CC)Cc1ccc(CN2C(=O)COc3c(C)cc(C=C4SC(=S)NC4=O)cc32)cc1 ?
Result: 250 to 252 °C

Problem: What value of measured melting point is listed for C[C@@H]1S[C@@H](C(=O)Nc2ccc(CN3CCOCC3)cc2)Cc2cc3c(cc2C1=O)OCO3 ?
Result: 172 to 174 °C

Problem: What value of measured melting point is listed for Nc1nc(Cl)cc(-c2ccco2)n1 ?
Result: 133 to 140 °C

Problem: What value of measured melting point is listed for O=C(O)Cn1cc(Cc2cccc([N+](=O)[O-])c2)c2ccccc21 ?
Result: 163 to 165 °C

====

attribute-measured: melting point

Problem: What value of measured melting point is listed for CCCCCCCC[Si](C)(C)c1cccc(Cl)c1C(=O)NCC ?
Result: 62 to 63 °C

Problem: What value of measured melting point is listed for Cc1cc(C(C)NC(=O)NO)c(C)s1 (stereo unspecified) ?
Result: 124 to 126 °C

Problem: What value of measured melting point is listed for CCOC(=O)C1=C(C)Nc2ncnc(OC(C)C)c2C1c1ccccc1 (stereo unspecified) ?
Result: 201 to 202 °C

Problem: What value of measured melting point is listed for COc1cc2cc(-c3ccc(OCC(O)CNC(C)C)cc3)n(C)c(=O)c2cc1OC (stereo unspecified) ?
Result: 206 to 207 °C

Problem: What value of measured melting point is listed for O=C(O)c1ccc(-c2nc(-c3ccncc3)cs2)cc1 ?
Result: > 300 °C

Problem: What value of measured melting point is listed for CN(C(=O)c1ccc2nonc2c1)C1CCCC1 ?
Result: 110 to 111 °C

Problem: What value of measured melting point is listed for NCC1Cc2cc(C(F)(F)F)cc(-c3ccoc3)c2O1 (stereo unspecified) ?
Result: > 250 °C

Problem: What value of measured melting point is listed for O=c1cccc(C(F)F)[nH]1 ?
Result: 125 to 127 °C

Problem: What value of measured melting point is listed for N=C(NO)c1ccc(-c2ccc(-c3ccc(C(=N)NO)cn3)o2)nc1 ?
Result: 272 to 274 °C

Problem: What value of measured melting point is listed for Clc1cc2nc(CBr)c(CBr)nc2cc1Cl ?
Result: 154 to 156 °C

Problem: What value of measured melting point is listed for C/C=C/C(=O)OC(COc1ccc(C(=O)c2ccccc2)c(O)c1)COc1ccc(C(=O)c2ccccc2)c(O)c1 ?
Result: 99 to 103 °C

Problem: What value of measured melting point is listed for COC(=O)c1sc2cc(O)ccc2c1C ?
Result: 174 to 176 °C

Problem: What value of measured melting point is listed for CCCC(=O)c1cnc2c(OCCCN(C)C)cccc2c1Nc1ccccc1C ?
Result: 109 to 110 °C

Problem: What value of measured melting point is listed for Clc1ccc(Cn2cc(CCn3ccnc3)c3ccccc32)cc1 ?
Result: 78 to 80 °C

Problem: What value of measured melting point is listed for CCCCCCCCCCCCCCCCCCS(=O)(=O)N[C@H]1CCCNC(=O)C1 ?
Result: 99 to 100 °C

Problem: What value of measured melting point is listed for O=[N+]([O-])c1ccc(Oc2ccc3c(c2)Nc2ccccc2S3)cc1 ?
Result: 210 to 211 °C

Problem: What value of measured melting point is listed for CCCn1c(COCC)nc2c(N)nc3ccc(OCc4cccnc4)cc3c21 ?
Result: 190 to 191 °C

Problem: What value of measured melting point is listed for CSc1cc2cc(C)ccc2cc1C=O ?
Result: 117 to 118 °C

Problem: What value of measured melting point is listed for COc1ccc(-c2nc(CN(c3ccccc3)c3ccccc3)nc3cc(OC)c(OC)cc23)cc1OC ?
Result: 215 to 216 °C

Problem: What value of measured melting point is listed for Nc1ncnc2c1ncn2Cc1oc2ccccc2c(=O)c1-c1cccc(F)c1 ?
Result: 224 to 227 °C

Problem: What value of measured melting point is listed for CCOC(=O)c1cn(CCF)c2nc(S(=O)(=O)CC)c(F)cc2c1=O ?
Result: 176 to 178 °C

Problem: What value of measured melting point is listed for COc1ccc(Nc2nc(NC3CCCCCC3)nc(N(C)C3CCN(C)CC3)n2)cc1Cl ?
Result: 173 to 176 °C

Problem: What value of measured melting point is listed for COc1cc(Nc2nc3cccc(-c4ccc(C(=O)N(C)C)cc4)c3o2)cc(OC)c1OC ?
Result: > 280 °C

====

attribute-measured: melting point (°C)
Response body: numeric value in °C, unit text excluded.

{"compound": "O=C(CC1CCC1)N[C@H]1CC[C@H](CCN2CCN(c3nccc4c3OCC4)CC2)CC1", "melting point [°C]": 148}
{"compound": "Cc1ccc(SSc2ccc(C)cc2C(=O)Nc2ccc(S(N)(=O)=O)cc2)c(C(=O)Nc2ccc(S(N)(=O)=O)cc2)c1", "melting point [°C]": 307}
{"compound": "CCCC1Cc2c3c(c(C)c(C)c2C1=O)OC(C(=O)O)C3 (stereo not given)", "melting point [°C]": 161}

Could you now consider this next compound?
Problem: What value of measured melting point is listed for Cc1cc(C#N)cc(C(=O)Nc2cccc(Cl)c2)n1 ?
Result: 148

====

Reported melting point by item:

Example entries begin here.
{"compound": "CCCOc1nn(Cc2ccc(OCc3nc(-c4ccccc4)oc3C)cc2)cc1CCC(=O)O", "result": "108 to 109 °C"}
{"compound": "COC(=O)c1ccc(CN(C2CCCCC2C)S(=O)(=O)c2ccc(Cl)cc2)cc1 (centres undefined)", "result": "93 to 95 °C"}
{"compound": "Cc1oc(-c2ccccc2)nc1COc1ccc(Cn2cc(CCC(=O)O)c(-c3ccc(C(F)(F)F)cc3)n2)cc1", "result": "149 to 150 °C"}
{"compound": "Cc1nn(CC(O)c2ccc(OC(F)(F)F)cc2)c(=O)n1-c1ccc(N2CCN(c3ccc(O)cc3)CC2)cc1 (centres undefined)", "result": "231 °C"}
{"compound": "CS(=O)(=O)OCc1cc(I)cc(I)c1I", "result": "130 to 133 °C"}

Problem: What value of measured melting point is listed for CC1(C)[C@@H](C(=O)Nc2cc(C(F)(F)F)n[nH]2)[C@@H]1c1ccc(S(N)(=O)=O)cc1 (relative stereo) ?
Result: 210 to 213 °C

Problem: What value of measured melting point is listed for OC1CSC(Oc2cncc(-c3cncnc3)c2)C(O)C1O (centres undefined) ?
Result: 196 °C

Problem: What value of measured melting point is listed for COc1ccc(/C=C/c2nc3ccccc3c(=O)o2)cc1OC ?
Result: 175 to 179 °C

Problem: What value of measured melting point is listed for c1ccc(N(c2ccccc2)c2ccc3c4c(cccc24)CC3)cc1 ?
Result: 168 to 170 °C

Origin of the recorded values: a melting point compilation (Tetko et al.; mined from patent text by program, amines drawn as free bases though some values may be those of a salt)
